assay: Cytotoxicity against human neutrophils assessed as reduction in cell viability up to 10 uM by LDH release assay; assay type: cell-based; conditions: neutrophil

{"columns": ["chemical-string", "Activity"],
 "data": [
  ["C[C@@H]1CC[C@@]2(OC1)O[C@H]1C[C@H]3[C@@H]4C[C@H](O[C@@H]5O[C@H](C)[C@@H](O)[C@H](O)[C@H]5O)[C@H]5C[C@@H](O)CC[C@]5(C)[C@H]4CC[C@]3(C)[C@H]1[C@@H]2C", "Non-toxic"],
  ["C[C@@H]1CC[C@@]2(OC1)O[C@H]1C[C@H]3[C@@H]4C[C@H](O[C@@H]5OC[C@@H](O)[C@H](O[C@@H]6OC[C@@H](O)[C@H](O)[C@H]6O)[C@H]5O)[C@H]5C[C@@H](O)CC[C@]5(C)[C@H]4CC[C@]3(C)[C@H]1[C@@H]2C", "Non-toxic"],
  ["C[C@@H]1CC[C@@]2(OC1)O[C@H]1C[C@H]3[C@@H]4C[C@H](O[C@@H]5OC[C@@H](O)[C@H](O)[C@H]5O)[C@H]5C[C@@H](O)CC[C@]5(C)[C@H]4CC[C@]3(C)[C@H]1[C@@H]2C", "Non-toxic"],
  ["C[C@@H]1CC[C@@]2(OC1)O[C@H]1C[C@H]3[C@@H]4C[C@H](O[C@@H]5O[C@H](C)[C@@H](O)[C@H](O[C@@H]6OC[C@@H](O)[C@H](O)[C@H]6O)[C@H]5O)[C@H]5CC(=O)CC[C@]5(C)[C@H]4CC[C@]3(C)[C@H]1[C@@H]2C", "Non-toxic"]
]}
